Test system: Pasteurella multocida
Assay: minimum inhibitory concentration (MIC)
Measurement context: isolate (source animal id): 208

Sample smiles	minimum inhibitory concentration
NC[C@@H]1O[C@H](O[C@H]2[C@@H](O)[C@H](O[C@@H]3[C@@H](O)[C@H](N)C[C@H](N)[C@H]3O[C@H]3O[C@H](CN)[C@@H](O)[C@H](O)[C@H]3N)O[C@@H]2CO)[C@H](N)[C@@H](O)[C@@H]1O	> 32 µg/mL
CC1(C)S[C@@H]2[C@H](NC(=O)[C@H](N)c3ccccc3)C(=O)N2[C@H]1C(=O)O	≤ 0.25 µg/mL
CN(C)[C@@H]1C(O)=C(C(N)=O)C(=O)[C@@]2(O)C(O)=C3C(=O)c4c(O)cccc4[C@@](C)(O)[C@H]3C[C@@H]12	8 µg/mL
CCN1CCN(c2cc3c(cc2F)c(=O)c(C(=O)O)cn3C2CC2)CC1	≤ 0.12 µg/mL
CC[C@H]1OC(=O)C[C@@H](O)[C@H](C)[C@@H](O[C@@H]2O[C@H](C)[C@@H](O)[C@H](N(C)C)[C@H]2O)[C@@H](CCN2C[C@H](C)C[C@H](C)C2)C[C@@H](C)C(=O)/C=C/C(C)=C/[C@@H]1CO[C@@H]1O[C@H](C)[C@@H](O)[C@@H](OC)[C@H]1OC	4 µg/mL
CO/N=C(\C(=O)N[C@@H]1C(=O)N2C(C(=O)O)=C(CSC(=O)c3ccco3)CS[C@H]12)c1csc(N)n1	≤ 0.25 µg/mL
CC[C@H]1OC(=O)C[C@@H](O)[C@H](C)[C@@H](O[C@@H]2O[C@H](C)[C@@H](O)[C@H](N(C)C)[C@H]2O)[C@@H](CCN2CCCCC2)C[C@@H](C)C(=O)/C=C/C(C)=C/[C@@H]1CN1CCCCC1	≤ 1 µg/mL
